Sourced from paper PMC9927415

experimental_system: panel of 203 kinases (Homo sapiens, UniProt P27037)
Construct: purchased DiscoverX (KINOMEscan)
Sequence (P27037 20-513): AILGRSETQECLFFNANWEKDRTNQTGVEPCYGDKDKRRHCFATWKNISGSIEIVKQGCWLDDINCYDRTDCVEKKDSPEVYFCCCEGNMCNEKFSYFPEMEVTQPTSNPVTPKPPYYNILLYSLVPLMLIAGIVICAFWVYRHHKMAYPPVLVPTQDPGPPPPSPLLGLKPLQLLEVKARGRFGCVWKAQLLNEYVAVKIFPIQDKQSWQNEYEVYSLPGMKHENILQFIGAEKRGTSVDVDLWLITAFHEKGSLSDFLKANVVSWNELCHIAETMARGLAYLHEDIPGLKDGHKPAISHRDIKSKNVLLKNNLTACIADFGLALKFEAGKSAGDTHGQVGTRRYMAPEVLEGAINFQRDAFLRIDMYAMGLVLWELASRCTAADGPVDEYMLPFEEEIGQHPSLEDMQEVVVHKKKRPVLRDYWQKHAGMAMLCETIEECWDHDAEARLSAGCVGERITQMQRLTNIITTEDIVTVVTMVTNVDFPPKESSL
method_notes: KINOMEscan competitive binding, whole panel
cond: 10 µM, n=1; kinase ACVR2A; read-out: Percent inhibition ACVR2A
value_kind: inhibition at 10 µM (%)
Give the value in % but do not write % after it.

In: Answer with reported inhibition at 10 µM of COc1ccc(Nc2nccc(-c3cnn4ncccc34)n2)cc1 [Compound 2]
Out: 0

In: Please supply the value of reported inhibition at 10 µM for the item Fc1cccc(COc2ccc(Nc3ncnc4c3CN(CCN3CCOCC3)CC4)cc2Cl)c1 [Compound 6]
Out: 0

In: Fill in reported inhibition at 10 µM for this entry: Cc1ccc(O)cc1Nc1ccnc(Nc2cccc(C(N)=O)c2)n1 [Compound 3]
Out: 99.3

In: Specify inhibition at 10 µM for Clc1ccc(Nc2ncc(-c3ccccc3)s2)cc1 [Compound 10] and stop.
Out: 0

In: // Input: Cc1ccc(O)cc1N(C)c1ccnc(Nc2cccc(S(N)(=O)=O)c2)n1 [Compound 4] . Output its inhibition at 10 µM only.
Out: 99.7

In: Annotate the compound COc1cc(Nc2nccc(-c3sc(N)nc3-c3cccc(NC(=O)c4c(F)cccc4F)c3)n2)cc(OC)c1OC [Compound 7] with its measured inhibition at 10 µM.
Out: 0

In: Give the reported inhibition at 10 µM for this compound. c1ccc(COc2cccc(-c3ccnc4[nH]ccc34)c2)cc1 [Compound 9]
Out: 0

In: Provide measured inhibition at 10 µM value, entry: CN1CCN(c2ccc(Nc3nccc(-c4cnn5ncccc45)n3)cc2C#N)CC1 [Compound 1]
Out: 0

In: Determine its reported inhibition at 10 µM: C[C@@H](Oc1cc(-c2cnc3ccccn23)sc1C(N)=O)c1ccccc1Cl [Compound 8]
Out: 0

In: Indicate the recorded inhibition at 10 µM value for this compound: Nc1ncc2c(-c3ccncc3)c[nH]c2n1 [Compound 11]
Out: 0
